# Tested system: PtIDH1 (Phaeodactylum tricornutum, UniProt B7G620)
# Sequence (B7G620 54-548): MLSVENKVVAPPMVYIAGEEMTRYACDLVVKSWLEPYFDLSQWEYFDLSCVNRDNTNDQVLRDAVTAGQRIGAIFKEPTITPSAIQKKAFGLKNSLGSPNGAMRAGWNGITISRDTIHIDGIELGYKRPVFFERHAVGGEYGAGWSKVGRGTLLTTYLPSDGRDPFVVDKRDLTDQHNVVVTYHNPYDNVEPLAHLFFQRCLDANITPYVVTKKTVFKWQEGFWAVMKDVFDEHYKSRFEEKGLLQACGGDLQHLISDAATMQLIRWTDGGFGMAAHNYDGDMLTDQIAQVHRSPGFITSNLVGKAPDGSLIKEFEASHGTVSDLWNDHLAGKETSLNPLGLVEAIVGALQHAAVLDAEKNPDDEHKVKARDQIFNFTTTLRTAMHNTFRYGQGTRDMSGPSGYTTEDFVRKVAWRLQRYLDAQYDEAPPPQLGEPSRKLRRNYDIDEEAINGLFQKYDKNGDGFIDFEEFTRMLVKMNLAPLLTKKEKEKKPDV
Quantity name: pKi
Give bare numbers, as −log10 of the molar value.

Please indicate pKi recorded for NC(=O)C1=CN([C@@H]2O[C@H](COP(=O)(O)OP(=O)(O)OC[C@H]3O[C@@H](n4cnc5c(N)ncnc54)[C@H](O)[C@@H]3O)[C@@H](O)[C@H]2O)C=CC1
3.35
